- System: intestinal epithelial cell line T84 monolayers
- protocol-details: Effect of LC-PUFA on basal (spontaneous) barrier integrity: TER and 4 kDa FITC-dextran flux
- Format: cell-based, human
- condition-parameters: fatty acid 100 μM, 72 hr incubation, spontaneous barrier integrity
readout: Resistance (TER)

Observe how each entry below is paired with its result.
molecule	Resistance (TER)
CCCCC/C=C\C/C=C\C/C=C\C/C=C\CCCC(=O)O [ARA, 5,8,11,14-eicosatetraenoic acid]	1816 Ω·cm^2
CC/C=C\C/C=C\C/C=C\C/C=C\C/C=C\CCCC(=O)O [EPA, eicosapentaenoic acid]	1493 Ω·cm^2
CCCCCCCCCCCCCCCC(=O)O [Palmitic acid, palmitic (C 16:0) acid, reference compound]	831 Ω·cm^2

Next molecule, please.
Resistance (TER) lookup needed for CCC=CCC=CCC=CCC=CCC=CC/C=C\CCC(=O)O [DHA, cis-4,7,10,13,16,19 docosahexaenoic acid] , thanks. 1574 Ω·cm^2

###

- Test system: intestinal epithelial cell line T84 monolayers incubated with IL-4
- protocol-details: Effect of LC-PUFA on IL-4 mediated barrier disruption: TER and 4 kDa FITC-dextran flux
- Type: cell-based, human
- condition-parameters: fatty acid 100 μM, 48 hr pre-incubation then 48 hr co-incubation with IL-4 2 ng/ml
readout: IL-4 TER

Some solved cases for reference:
compound	obs-value
CCCCCCCCCCCCCCCC(=O)O [Palmitic acid, palmitic (C 16:0) acid, reference compound]	321 Ω·cm^2
CC/C=C\C/C=C\C/C=C\C/C=C\C/C=C\CCCC(=O)O	539 Ω·cm^2
CCCCC/C=C\C/C=C\C/C=C\C/C=C\CCCC(=O)O	636 Ω·cm^2

Requested read-out: IL-4 TER. Entry: CCC=CCC=CCC=CCC=CCC=CC/C=C\CCC(=O)O [DHA, cis-4,7,10,13,16,19 docosahexaenoic acid] 547 Ω·cm^2
